Taken from ChEMBL document CHEMBL1914423.

# Tested on: NCI-H460
# RUN_DESCRIPTION: Anticancer activity against human NCI-H460 cells after 48 hrs by SRB assay
# Assay type: functional
# TEST_SETTINGS: NCI-H460, 48 h
RECORDED_ENDPOINT: TGI (µM)

>>> df
                              smiles_string  observed_result
0  O=C(NCCNc1nccc(-c2c(-c3cccc(O)c3)nc3sccn23)n1)c1ccccc1O               31
1  COc1cccc(-c2nc3sccn3c2-c2ccnc(NCCNC(=O)Nc3cccc(C(F)(F)F)c3)n2)c1             14.4
2  O=C(NCCNc1nccc(-c2c(-c3cccc(O)c3)nc3sccn23)n1)Nc1cccc(C(F)(F)F)c1             20.8
3  O=C(NCCNc1nccc(-c2c(-c3cccc(O)c3)nc3sccn23)n1)c1ccccc1             27.5
